Origin of the recorded values: ChEMBL document CHEMBL1134779

- Tested on: U-87 MG
- protocol summary: In vitro inhibition of U-87 MG (human glioblastoma) cell growth.
- Assay type: functional, cell-based, U-87MG ATCC
Measured pIC50 values are reported for all entries that follow.
When answering, recall that pIC50 equals minus log10 of the concentration in mol/L, and write that number alone.

{"compound": "Nc1ccnc2c1-c1nc3ccccc3c3ccnc(c13)C2=O", "pIC50": 7.15}
{"compound": "CCOC(=O)c1cnc2c(c1)C(=O)c1c(-c3ccccc3NC(=O)C(F)(F)F)ccnc1C2=O", "pIC50": 7.10}
{"compound": "O=C1c2nccc([N+](=O)[O-])c2-c2nc3ccccc3c3ccnc1c23", "pIC50": 7.15}
{"compound": "O=C1c2nccc(O)c2-c2nc3ccccc3c3ccnc1c23 [MERIDINE]", "pIC50": 7.00}

Record CCOC(=O)c1cnc2c(c1)-c1nc3ccccc3c3ccnc(c13)C2=O . Reported pIC50: 7.15
